# targetOrTestSystem: HA of ca A/swine/Missouri/06 (H2N3) (influenza A virus)
# assayRemarks: cell-based or functional assay

>  <binder>
Antibody 5 (antibody, V domains shown) VH: QVQLQQSGPGLVKPSQTLSLTCAISGDRVSSNSAVWNWIRQSPSRGLEWLGRTYYRSKWYYDYAESVKSRIVIDPDTSKNQVSLQLNSVTPEDSAIYYCARGGHITVFGLNIDAYDIWGQGAMVTVSS VL: DIQMTQSPSSLSASVGDRVTISCRAQSLSSYLHWYQQKPGQPPKLLIYAATTLQSGVPSRFSGSGSGTDFTLTISTFQAEDVATYYCQQSRTFGQGTKVEIK

>  <Neutralization IC50, H2-MO06>
2.38 µg/mL

$$$$
>  <binder>
Antibody 8 (antibody, V domains shown) VH: QVQLQQSGPGLVKPSQTLSLTCVISGDTVSSNRATWNWMRQSPLRGLEWLGRTYYRSKWYNDYAVSVKSRVVINPDTSKNQVSLQLNTVTPDDSGVYFCARGGHITVFGVNIDAFDIWGLGTKVTVSS VL: DIQMTQSPSSLSASVGDRVTISCRASQRLNSYLHWYQQTPGQAPKLLIYATSTLQSGVSPRFSGSGSGTDFTLTISSLQPEDVATYYCQLSRTFGHGTKVEIK

>  <Neutralization IC50, H2-MO06>
2.62 µg/mL

$$$$
